- Target Desc: T1, human β-klotho (human, UniProt Q86Z14 1-1044)
- T1 sequence (looked up): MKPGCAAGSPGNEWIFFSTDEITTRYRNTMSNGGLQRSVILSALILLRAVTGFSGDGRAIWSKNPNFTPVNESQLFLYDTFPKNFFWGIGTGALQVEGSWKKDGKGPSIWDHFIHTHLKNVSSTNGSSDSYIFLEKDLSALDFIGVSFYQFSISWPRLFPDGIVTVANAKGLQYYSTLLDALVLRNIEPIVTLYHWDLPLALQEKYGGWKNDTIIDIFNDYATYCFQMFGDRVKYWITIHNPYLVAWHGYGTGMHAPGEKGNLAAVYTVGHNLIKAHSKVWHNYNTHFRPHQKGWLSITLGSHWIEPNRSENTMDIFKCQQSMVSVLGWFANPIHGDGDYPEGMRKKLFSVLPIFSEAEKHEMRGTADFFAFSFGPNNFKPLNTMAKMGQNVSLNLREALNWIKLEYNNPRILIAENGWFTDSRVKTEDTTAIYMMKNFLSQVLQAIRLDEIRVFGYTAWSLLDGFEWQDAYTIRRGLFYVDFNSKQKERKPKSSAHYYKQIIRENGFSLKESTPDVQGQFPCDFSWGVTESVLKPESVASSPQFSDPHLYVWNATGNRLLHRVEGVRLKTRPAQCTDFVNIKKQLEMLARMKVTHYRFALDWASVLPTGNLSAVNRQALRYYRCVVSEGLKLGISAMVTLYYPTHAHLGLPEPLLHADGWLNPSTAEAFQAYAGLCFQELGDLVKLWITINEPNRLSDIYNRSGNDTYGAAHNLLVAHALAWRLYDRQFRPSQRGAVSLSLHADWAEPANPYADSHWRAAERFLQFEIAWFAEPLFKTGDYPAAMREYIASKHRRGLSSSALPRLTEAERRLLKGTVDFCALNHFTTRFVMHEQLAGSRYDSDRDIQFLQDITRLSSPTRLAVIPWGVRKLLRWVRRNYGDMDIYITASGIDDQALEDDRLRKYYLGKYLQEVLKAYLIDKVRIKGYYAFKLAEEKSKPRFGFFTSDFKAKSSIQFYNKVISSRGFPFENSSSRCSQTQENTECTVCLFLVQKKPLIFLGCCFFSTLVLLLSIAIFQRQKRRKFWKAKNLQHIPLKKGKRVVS
- Assay Info: cell-based or functional assay
Would you kindly list EC50 (nM), pERK In Cell Western for each of these binders?
Respond with the bare value in nM.

Find the recorded EC50 (nM), pERK In Cell Western belonging to hFGF21(33-209)-V59 (ligand) DSSPLLQFGGQVRQRYLYTDDACQTEAHLEIREDGTVGGAAHQSPESLLELKALKPGVIQILGVKTSRFLCQRPDGALYGSLHFDPEACSFRELLLENGYNVYQSEAHGLPLHLPCNRSPHRDPASQGPARFLPLPGLPPAPPEPPGILAPQPPDVGSSDPLAMVGPSQGRSPSYAS and report it. 6.5

Find the recorded EC50 (nM), pERK In Cell Western belonging to hFGF21(33-209)-V79 (ligand) DSSPLLQFGGQVRQRYLYTDDAQQTEAHLEIREDGTVGGAAHQSPESLLELKALKPGVIQILGVKTSRFLCQKPDGALYGSLHFDPEACSFRELLLEDGYNVYQSEAHGLPLHLPGNRSPHCDPAPQGPARFLPLPGLPPALPEPPGILAPQPPDVGSSDPLAMVGPSQARSPSYAS and report it. 2.2

Find the recorded EC50 (nM), pERK In Cell Western belonging to hFGF21(33-209)-V86 (ligand) DSSPLLQFGGQVRQRYLYTDDAQQTEAHLEIREDGTVGGAADQSPESLLQLRALRPGVIQILGVRTSRFLCQRPDGALYGSLHFDPEACSFRELLLEDGYNVYQSEAHGLPLHLPGNRSPHKDPAPRGPARFLPLPGLPPAPPEPPGILAPQPPDVGSSDPLAMVGPSQGRSPSYAS and report it. 8.5

Find the recorded EC50 (nM), pERK In Cell Western belonging to hFGF21(33-209)-V18 (ligand) DSSPLLQFGGQVRQRYLYTDDAQQTESHLEIREDGTVGGAAHQSPESLLQLKALKPGVIQILGVQTSRFLCQKPDGALYGSLHFDPEACSFRELLLENGYNVYQSEAHGLPLHLPGNRSPHRDPAPQGPARFLPLPGLPPALPEPPGILAPQPPDVGSSDPLAMVGPSQGRSPSYAS and report it. 15

Find the recorded EC50 (nM), pERK In Cell Western belonging to hFGF21(33-209)-WT-AM (ligand) DSSPLLQFGGQVRQRYLYTDDAQQTEAHLEIREDGTVGGAADQSPESLLQLKALKPGVIQILGVKTSRFLCQRPDGALYGSLHFDPEACSFRELLLEDGYNVYQSEAHGLPLHLPGNKSPHRDPAPRGPARFLPLPGLPPAPPEPPGILAPQPPDVGSSDPLSMVGPSQGRSPSYAS and report it. 5.7

Find the recorded EC50 (nM), pERK In Cell Western belonging to hFGF21(33-209)-V61 (ligand) DSSPLLQFGGQVRQRYLYTDDACQTEAHLEIREDGTAGGAAHQSPESLLELKALKPGVIQILGVKTSRFLCQRPDGALYGSLHFDPEACSFRELLLENGYNVYQSEAHGLPLHLPCNRSPHRDPASRGPARFLPLPGLPPAPPEPPGILAPQPPDVGSSDPLAMVGPSQGRSPSYAS and report it. 22
